- System: Oxytocin receptor (OT receptor) (Homo sapiens)
- Construct: expressed in transfected cells; host or cells: Ca2+ optimized hematopoietic cell lines (rat)
- Sequence (P30559 whole entry, species assumed): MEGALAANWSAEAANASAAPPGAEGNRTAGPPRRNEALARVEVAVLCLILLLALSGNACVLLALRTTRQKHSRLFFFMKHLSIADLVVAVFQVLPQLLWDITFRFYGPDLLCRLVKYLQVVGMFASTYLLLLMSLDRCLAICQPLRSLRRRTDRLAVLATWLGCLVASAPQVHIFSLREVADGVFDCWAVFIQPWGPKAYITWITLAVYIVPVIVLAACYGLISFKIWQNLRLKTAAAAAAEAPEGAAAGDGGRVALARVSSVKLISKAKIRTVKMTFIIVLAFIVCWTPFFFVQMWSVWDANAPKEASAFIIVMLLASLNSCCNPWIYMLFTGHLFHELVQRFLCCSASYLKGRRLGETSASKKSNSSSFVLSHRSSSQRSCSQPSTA
- Experiment summary: Ca2+ flux (FLIPR) assay, OT receptor, agonist/antagonist mode
- Type: cell-based
- Condition details: antagonist mode, 10 μM
Known inhibition at 10 µM of a selection of compounds

Record smiles	System	inhibition at 10 µM / %
CN1CCNC(=O)c2cncc(c2)-c2cccc(c2)OC[C@@H]2C[C@@H](NC(=O)OC(C)(C)C)CN2C(=O)C1	Oxytocin receptor (OT receptor) (Homo sapiens)	58
CC(=O)N[C@@H]1C[C@H]2COc3cccc(c3)-c3cncc(c3)C(=O)NCCN(Cc3cccc(F)c3)CC(=O)N2C1	Oxytocin receptor (OT receptor) (Homo sapiens)	57
CN1CCNC(=O)c2cncc(c2)-c2cccc(c2)OC[C@@H]2C[C@@H](NS(=O)(=O)c3ccccc3)CN2C(=O)C1	Oxytocin receptor (OT receptor) (Homo sapiens)	77
CN1CCNC(=O)c2cncc(c2)-c2cccc(c2)OC[C@@H]2C[C@@H](NC(=O)Cc3ccc4ccccc4c3)CN2C(=O)C1	Oxytocin receptor (OT receptor) (Homo sapiens)	60

###

- System: Bombesin receptor subtype 3 (BB3 receptor) (Homo sapiens)
- Sequence (P32247 whole entry, species assumed): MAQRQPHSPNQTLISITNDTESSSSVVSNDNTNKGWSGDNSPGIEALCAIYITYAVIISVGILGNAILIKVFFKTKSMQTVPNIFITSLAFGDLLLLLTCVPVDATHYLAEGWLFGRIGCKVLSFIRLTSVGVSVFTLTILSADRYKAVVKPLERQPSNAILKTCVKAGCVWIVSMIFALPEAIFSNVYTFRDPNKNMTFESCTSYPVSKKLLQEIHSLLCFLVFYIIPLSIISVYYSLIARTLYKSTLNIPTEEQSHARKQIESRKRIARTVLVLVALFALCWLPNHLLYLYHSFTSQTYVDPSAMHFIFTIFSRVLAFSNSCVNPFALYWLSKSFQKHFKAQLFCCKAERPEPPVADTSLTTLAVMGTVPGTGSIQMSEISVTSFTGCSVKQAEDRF
- Experiment summary: Ca2+ flux (FLIPR) assay, BB3 receptor, agonist/antagonist mode
- Condition details: agonist mode
pEC50: −log10 of the molar value.
# key: entry, value: pEC50

Record smiles	pEC50
CN1CC[C@H](NC(=O)Cc2ccc3ccccc3c2)C(=O)N2C[C@@H](O)C[C@H]2COc2ccsc2-c2cc(n(C)n2)C1=O	6.20
CO[C@H]1C[C@H]2COc3ccsc3-c3cc(n(C)n3)C(=O)N(C)CC[C@H](NC(=O)Cc3ccc4ccccc4c3)C(=O)N2C1	6.11

###

- Experiment summary: Metabolic stability assay, human liver microsomes
- Format: in vitro ADME
- Condition details: human microsomes, 60 min, 10 μM, 37° C.
Lab note: anything with Metabolic Stability 60 min hum [% remain.] at or over 1 % remain. counts as 1 (yes); the rest go in 0 (no).

Compound	Assigned category
C[C@H]1COc2cccc(c2)-c2cccc(c2)C(=O)N(C)[C@H](C(=O)NCc2cn(C)cn2)CCC(=O)N1 [Ex. 88]	1 (yes)
COc1ccc2c(c1)-c1cccc(c1)C(=O)N(C)[C@H](C(=O)NCc1cccc3ccccc13)CCC(=O)N[C@H](C)CO2 [Ex. 60]	0 (no)
COCCNC(=O)[C@@H]1CCC(=O)N[C@@H](C)COc2cccc(c2)-c2cccc(c2)C(=O)N1C [Ex. 77]	1 (yes)
COc1ccc2c(c1)-c1cccc(c1)C(=O)N(C)[C@H](C(=O)NC1CC1)CCC(=O)N[C@H](C)CO2 [Ex. 52]	1 (yes)

###

- System: Human recombinant cathepsin S (Homo sapiens)
- Construct: host or cells: murine myeloma NS0 cells
- Sequence (P25774 115-331): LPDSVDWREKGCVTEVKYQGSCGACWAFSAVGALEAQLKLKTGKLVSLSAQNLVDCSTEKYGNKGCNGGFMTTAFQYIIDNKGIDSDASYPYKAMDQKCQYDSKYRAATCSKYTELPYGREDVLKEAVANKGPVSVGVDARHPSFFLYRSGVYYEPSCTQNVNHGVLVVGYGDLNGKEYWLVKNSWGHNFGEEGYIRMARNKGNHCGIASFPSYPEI
- Experiment summary: Cathepsin S (CatS) enzyme assay
- Type: biochemical
- Condition details: 10 μM compound
inhibition at 10 µM values by entry

Record smiles	inhibition at 10 µM [%]
CN(C)CC(=O)N[C@H]1CCCN(C)C(=O)c2cccc(c2)-c2ccccc2OC[C@@H]2C[C@H](NC(=O)Cc3ccc4ccccc4c3)CN2C1=O	45
CCCC(=O)N[C@H]1CCCN(C)C(=O)c2cccc(c2)-c2ccccc2OC[C@@H]2C[C@H](NC(=O)Cc3ccc4ccccc4c3)CN2C1=O	50
CN1CCC[C@H](NC(=O)OCc2ccccc2)C(=O)N2C[C@@H](NC(=O)Cc3ccc4ccccc4c3)C[C@H]2COc2ccccc2-c2cccc(c2)C1=O	82
CN1CCC[C@H](NS(=O)(=O)C2CC2)C(=O)N2C[C@@H](NC(=O)Cc3ccc4ccccc4c3)C[C@H]2COc2ccccc2-c2cccc(c2)C1=O	75
CN1CCC[C@H](NC(=O)c2ccccc2)C(=O)N2C[C@@H](NC(=O)Cc3ccc4ccccc4c3)C[C@H]2COc2ccccc2-c2cccc(c2)C1=O	81
CN1CCC[C@H](NC(=O)Cc2ccccc2)C(=O)N2C[C@@H](NC(=O)Cc3ccc4ccccc4c3)C[C@H]2COc2ccccc2-c2cccc(c2)C1=O	87
CCCCC(=O)N[C@H]1CCCN(C)C(=O)c2cccc(c2)-c2ccccc2OC[C@@H]2C[C@H](NC(=O)Cc3ccc4ccccc4c3)CN2C1=O	57
